Tested on: blackgrass (Alopecurus myosuroides)
EXPERIMENTAL DETAILS: Test B pre-/postemergence plant response
Assay type: in vivo
STUDY CONDITIONS: Postemergence, 250 g ai/ha; scale 0 to 100
READOUT: Blackgrass plant response rating

Completed entries (count: 3):
>>> value_reported("Cc1c(F)cccc1-n1c(-c2ccccc2)ncc(C(=O)C2=C(O)CCCC2=O)c1=O [Compound 47]")
30
>>> value_reported("Cc1ccc(-n2c(-c3cccc(Cl)c3)ncc(C(=O)C3=C(O)CCCC3=O)c2=O)cc1 [Compound 39]")
20
>>> value_reported("Cc1ccc(C)c(-n2c(-c3ccccc3)ncc(C(=O)C3=C(O)CCCC3=O)c2=O)c1 [Compound 29]")
50

Field request: Blackgrass plant response rating | item: Cc1cccc(-n2c(-c3cccc(Cl)c3)ncc(C(=O)C3=C(O)CCCC3=O)c2=O)c1 [Compound 45]
25

Moving on to Cc1cccc(-n2c(-c3ccccc3)ncc(C(=O)C3=C(O)CCCC3=O)c2=O)c1C [Compound 27]
50

====

System: morningglory (Ipomoea spp.)
EXPERIMENTAL DETAILS: Test A pre-/postemergence plant response
Assay type: in vivo
STUDY CONDITIONS: Preemergence, 125 g ai/ha; 0 to 100 scale, 0 = no effect, 100 = complete control
READOUT: Plant response rating, Morningglory

>>> value_reported("Cc1ccc(-n2c(-c3ccccc3)ncc(C(=O)C3=C(O)CCCC3=O)c2=O)cc1C [Compound 32]")
0
>>> value_reported("CCCn1c(-c2ccccc2)ncc(C(=O)C2=C(O)CCCC2=O)c1=O [Compound 50]")
40
>>> value_reported("COc1ccccc1-n1c(-c2ccccc2)ncc(C(=O)C2=C(O)CCCC2=O)c1=O [Compound 15]")
0

Alright, here's another molecule for you.
Field request: Plant response rating, Morningglory | item: CCCCn1c(-c2cccc(C)c2)ncc(C(=O)C2=C(O)C3CCC(C3)C2=O)c1=O (stereo not shown) [Compound 232]
0

====

The reader will find reported Plant response rating, Flood, Sedge, Umbrella values listed item by item below.
Tested on: umbrella sedge (Cyperus difformis)
EXPERIMENTAL DETAILS: Test B flooded paddy test
Type: in vivo
STUDY CONDITIONS: 250 g ai/ha; flooded paddy test; visual rating on 0 to 100 scale (0 no effect, 100 complete control) after 13 to 15 days
Give the figure by itself; no unit, no explanation.

Completed entries (count: 2):
>>> value_reported("CCCCn1c(C2CC2)ncc(C(=O)C2=C(O)CCCC2=O)c1=O")
90
>>> value_reported("CC(C)c1ncc(C(=O)C2=C(O)CCCC2=O)c(=O)n1-c1ccccc1")
85

Field request: Plant response rating, Flood, Sedge, Umbrella | item: `CCCCCCn1c(-c2ccccc2)ncc(C(=O)C2=C(O)CCCC2=O)c1=O`
85

Moving on to `Cc1cccc(-c2ncc(C(=O)C3=C(O)CCCC3=O)c(=O)n2-c2cc(F)ccc2C)c1`
95

====

Tested on: canarygrass (Phalaris minor)
EXPERIMENTAL DETAILS: Test B postemergence plant response
Type: in vivo
STUDY CONDITIONS: Postemergence, 250 g ai/ha; scale 0 to 100 (0 no effect, 100 complete control); 13 to 15 days
Source text: […] Treated plants and controls were maintained in a greenhouse for 13 to 15 days, after which time all treated plants were visually evaluated and compared to controls. […]
READOUT: Plant response rating, Canarygrass

Field request: Plant response rating, Canarygrass | item: CCCn1c(-c2cccc(F)c2)ncc(C(=O)C2=C(O)CCCC2=O)c1=O [Compound 127]
60

Moving on to CCc1cccc(-n2c(-c3ccccc3)ncc(C(=O)C3=C(O)CCCC3=O)c2=O)c1 [Compound 220]
30

Moving on to CCCn1c(-c2ccccc2)ncc(C(=O)C2=C(O)C3CCC(C3)C2=O)c1=O (stereo not drawn) [Compound 226]
60

====

System: morningglory (Ipomoea spp.)
EXPERIMENTAL DETAILS: Test A pre-/postemergence plant response
Type: in vivo
STUDY CONDITIONS: Postemergence, 500 g ai/ha; 0 to 100 scale, 0 = no effect, 100 = complete control; approx. ten days
READOUT: Plant response rating, Morningglory

>>> value_reported("Cc1ccc(Cl)cc1-n1c(-c2cccc(Cl)c2)ncc(C(=O)C2=C(O)CCCC2=O)c1=O")
100

Hello, I am looking for reported Plant response rating, Morningglory with morningglory (Ipomoea spp.) for `COCCn1c(-c2cccc(Br)c2)ncc(C(=O)C2=C(O)CCCC2=O)c1=O` . Could you help?
100

Moving on to `Cc1ccc(-n2c(-c3cccc(Cl)c3)ncc(C(=O)C3=C(O)CCCC3=O)c2=O)cc1`
90

Moving on to `Cc1cccc(-n2c(-c3ccccc3)ncc(C(=O)C3=C(O)CCCC3=O)c2=O)c1C`
70

Moving on to O=C1CCCC(O)=C1C(=O)c1cnc(-c2ccsc2)n(CC2CCCO2)c1=O (centres unmarked)
100

====

Tested on: velvetleaf (Abutilon theophrasti)
EXPERIMENTAL DETAILS: Test B pre-/postemergence plant response
Assay type: in vivo
STUDY CONDITIONS: 31 g ai/ha, postemergence; scale 0 to 100, 0 is no effect, 100 is complete control
READOUT: Plant response rating, Velvetleaf

>>> value_reported("CCCc1ncc(C(=O)C2=C(O)CCCC2=O)c(=O)n1CCC")
98

Field request: Plant response rating, Velvetleaf | item: `CCCCc1ncc(C(=O)C2=C(O)CCCC2=O)c(=O)n1-c1ccccc1C`
85

Moving on to `O=C1CCCC(O)=C1C(=O)c1cnc(C2CCCC2)n(-c2ccccc2)c1=O`
95

Moving on to `O=C1CCCC(O)=C1C(=O)c1cnc(C2CC2)n(-c2ccccc2)c1=O`
100

Moving on to `CCCn1c(-c2ccccc2)ncc(C(=O)C2=C(O)CCCC2=O)c1=O`
90

====

System: large crabgrass (Digitaria sanguinalis)
EXPERIMENTAL DETAILS: Test A pre-/postemergence plant response
Format: in vivo
STUDY CONDITIONS: Preemergence, 500 g ai/ha; visual injury, 0 to 100 scale (0 no effect, 100 complete control), approx. ten days
The reader will find reported Plant response rating, Crabgrass, Large values listed item by item below.
Give the figure by itself; no unit, no explanation.

Hello, I am looking for reported Plant response rating, Crabgrass, Large with large crabgrass (Digitaria sanguinalis) for `CCCc1ncc(C(=O)C2=C(O)CCCC2=O)c(=O)n1-c1cccc(C)c1` . Could you help?
100

Moving on to `Cc1cc(-n2c(-c3cccc(Br)c3)ncc(C(=O)C3=C(O)CCCC3=O)c2=O)ccc1F`
100

Moving on to `CCn1c(-c2ccccc2)ncc(C(=O)C2=C(O)CCCC2=O)c1=O`
90

====

System: yellow nutsedge (Cyperus esculentus)
EXPERIMENTAL DETAILS: Test B pre-/postemergence plant response
Format: in vivo
STUDY CONDITIONS: Postemergence, 250 g ai/ha; scale 0 to 100 (0 no effect, 100 complete control)
READOUT: Plant response rating, Nutsedge, Yellow
Give the figure by itself; no unit, no explanation.

Completed entries (count: 3):
>>> value_reported("CCOCCn1c(-c2ccccc2)ncc(C(=O)C2=C(O)CCCC2=O)c1=O [Compound 96]")
85
>>> value_reported("COCCn1c(-c2cccs2)ncc(C(=O)C2=C(O)CCCC2=O)c1=O [Compound 108]")
85
>>> value_reported("CCCn1c(-c2ccsc2)ncc(C(=O)C2=C(O)CCCC2=O)c1=O [Compound 93]")
70

Field request: Plant response rating, Nutsedge, Yellow | item: COCCCn1c(-c2cccc(F)c2)ncc(C(=O)C2=C(O)CCCC2=O)c1=O [Compound 126]
80

====

Test system: johnsongrass (Sorghum halepense)
EXPERIMENTAL DETAILS: Test B pre-/postemergence plant response
Type: in vivo
STUDY CONDITIONS: 250 g ai/ha, Preemergence, 0 to 100 scale
READOUT: Plant response rating, Johnsongrass
Give the figure by itself; no unit, no explanation.

Completed entries (count: 4):
>>> value_reported("Cc1ccc(F)c(-n2c(-c3ccccc3)ncc(C(=O)C3=C(O)CCCC3=O)c2=O)c1")
80
>>> value_reported("Cc1cccc(-n2c(-c3cccc(Cl)c3)ncc(C(=O)C3=C(O)CCCC3=O)c2=O)c1")
85
>>> value_reported("O=C1CCCC([O-])=C1C(=O)c1cnc(-c2ccccc2)n(-c2ccccc2)c1=O.[K+]")
95
>>> value_reported("O=C1CCCC(O)=C1C(=O)c1cnc(-c2ccccc2)n(-c2ccc(F)cc2)c1=O")
90

Alright, here's another molecule for you.
Field request: Plant response rating, Johnsongrass | item: `CC(C)Cc1ncc(C(=O)C2=C(O)CCCC2=O)c(=O)n1-c1ccccc1`
95

====

System: giant foxtail (Setaria faberii)
EXPERIMENTAL DETAILS: Test B pre-/postemergence plant response
Assay type: in vivo
STUDY CONDITIONS: Postemergence, 31 g ai/ha; 0 to 100 scale (0 no effect, 100 complete control)
The reader will find reported Plant response rating, Foxtail, Giant values listed item by item below.
Give the figure by itself; no unit, no explanation.

Completed entries (count: 3):
>>> value_reported("CCCc1ncc(C(=O)C2=C(O)CCCC2=O)c(=O)n1-c1ccccc1 [Compound 217]")
70
>>> value_reported("CCCCn1c(C2CC2)ncc(C(=O)C2=C(O)CCCC2=O)c1=O [Compound 193]")
75
>>> value_reported("CCn1c(-c2cccc(F)c2)ncc(C(=O)C2=C(O)C3CCC(C3)C2=O)c1=O (stereo not shown) [Compound 236]")
75

Alright, here's another compound for you.
Field request: Plant response rating, Foxtail, Giant | item: CCc1cccc(-n2c(-c3ccccc3)ncc(C(=O)C3=C(O)CCCC3=O)c2=O)c1 [Compound 220]
30
